biological target: HLA-A*0201 (Homo sapiens, UniProt P04439, D140Y/D185E/D98H/E176V/E277Q/G131W/G231S/I119V/I121R/I166T/I218V/L300P/L318F/N151K/N90K/P208A/P217A/Q86G/Q94H/R138H/R169H/T345S); construct: Human T2 cells (purchased from the American Type Culture Collection, ATCC) (ATCC No. CRL-1992) expressing the HLA-A*0201 gene; endogenous in cells; host or cells: human T2 cells (ATCC CRL-1992); experiment: T2 cell-stabilization assay (T2-binding); details: T2 cells 5×10^5, peptide 50 µg/mL + β2-microglobulin 5 µg/mL, 28°C 16–18 h, then brefeldin A 10 µg/mL 37°C 3 h; FITC anti-HLA-A2, flow cytometry; MFI relative to negative control HCV C55-74 (set as 1)
PARAMETER: T2-binding Ratio of MFI

1. 16: HLA-A*0201-restricted 9-mer synthetic peptide from F protein of RSV-B1 strain (LMSNNVQIV) [compound 16]: 1.60
2. 25: HLA-A*0201-restricted 9-mer synthetic peptide from F protein of RSV-B1 strain (SLIAVGLLL) [compound 25]: 1.42
3. YMLTNSELL [peptide 14, HLA-A*0201-restricted 9-mer synthetic peptide from F protein of RSV-B1 strain]: 1.71
4. 12: HLA-A*0201-restricted 9-mer synthetic peptide from F protein of RSV-B1 strain (VLTSKVLDL) [compound 12]: 0.99
5. KIMTSKTDV [peptide 17, HLA-A*0201-restricted 9-mer synthetic peptide from F protein of RSV-B1 strain]: 0.95
6. 7: HLA-A*0201-restricted 9-mer synthetic peptide from F protein of RSV-B1 strain (HLEGEVNKI) [compound 7]: 0.83
7. 11: HLA-A*0201-restricted 9-mer synthetic peptide from F protein of RSV-B1 strain (SLSNGVSVL) [compound 11]: 1.06
8. 18: HLA-A*0201-restricted 9-mer synthetic peptide from F protein of RSV-B1 strain (SVGNTLYYV) [compound 18]: 1.29
